Below, each of the molecules is paired with its reported TGI value.
- System: SNB-75 CNS
- procedure-details: NCI tumour cell line growth inhibition, 48 h
endpoint-name: TGI

>>> print(df.to_string())
                                   molecule  study_system  meas_value
0  COc1cc2cc(C(=O)N3CC(CCl)c4c3cc(N)c3ccccc43)[nH]c2c(OC)c1OC (stereo not drawn)    SNB-75 CNS   < 0.01 µM
1  CC(C)C1=CC23CCC4C(C)(C(=O)O)CCCC4(C)C2CC1C1C(=O)N(c2ccccc2)C(=O)C13 (stereo not drawn)    SNB-75 CNS    > 100 µM
2  O=S(=O)(/N=C(\NO)Nc1ccc(Cl)cc1)c1cccc2nsnc12    SNB-75 CNS    > 100 µM

====

- Test system: ACHN renal
- procedure-details: NCI tumour cell line growth inhibition, 48 h
endpoint-name: TGI

>>> print(df.to_string())
                                   molecule  endpoint_name  meas_value
0  CCOC(=O)CC1C(COC(=O)NC)OC(n2cnc3c(NC(=O)Nc4ccccc4)ncnc32)C1O[Si](C)(C)C(C)(C)C (stereo not drawn)            TGI    > 100 µM
1  O=C(Cc1ccccc1)Nn1c(-c2ccccc2)nc2ccccc2c1=O            TGI    > 100 µM
2  OCC(O)c1nc2ccc3[nH]ncc3c2c2c1CCCC2 (stereo not drawn)            TGI     > 50 µM

====

Below, each of the compounds is paired with its reported TGI value.
- Tested on: NCI-H522 lung
- procedure-details: NCI tumour cell line growth inhibition, 48 h
endpoint-name: TGI

In [3]: df
Out[3]:
                                    compound   study_system  meas_value
 0             O=c1c2cccc3cccc(c4n1CCN=4)c32  NCI-H522 lung    > 100 µM
 1  CC[N+]1(C)CCC(O)(c2ccc(OC)cc2)C(C(=O)c2ccc(OC)cc2)C1 (configuration not stated)  NCI-H522 lung     3.89 µM
 2         c1csc(C[N+]23CN4CN(CN(C4)C2)C3)c1  NCI-H522 lung    > 100 µM
 3  O=C1CCCCCCCCCCC1CN1CCCCC1 (configuration not stated)  NCI-H522 lung    > 100 µM
 4  O=[N+]([O-])C1Cc2ccccc2OC1c1ccccc1 (configuration not stated)  NCI-H522 lung    > 100 µM
 5            Cc1ccc(/C=N/Nc2ccc3ccccc3n2)s1  NCI-H522 lung     77.8 µM
 6  FC1C2=C(SC1(F)F)C1CCC2C1 (configuration not stated)  NCI-H522 lung    > 100 µM
 7        CN(C)CCCn1nc(N)c2nc3cc(Cl)ccc3nc21  NCI-H522 lung    > 100 µM
 8  O=C(CNc1ccccc1[N+](=O)[O-])Nn1c(-c2ccccc2)nc2ccccc2c1=O  NCI-H522 lung     > 10 µM
 9                CC1(CCC(=O)OC2CCCCC2)OCCO1  NCI-H522 lung    > 100 µM
10  COc1ccc(OC)c(NS(=O)(=O)c2ccc3nc(C)n(NS(=O)(=O)c4cc(OC)ccc4OC)c(=O)c3c2)c1  NCI-H522 lung    > 100 µM
11              O=c1c(=O)c2c(Br)sc(Br)c2c1=O  NCI-H522 lung       32 µM
12  CCOP(=O)(OCC)C(N)c1ccc(Cl)cc1 (configuration not stated)  NCI-H522 lung    > 100 µM
13  CN1C(=O)N[C@H]2[C@@H]3NC(=O)c4ccc(Br)n4[C@@H]3C[C@]21O  NCI-H522 lung     0.31 µM
14                  CCOc1cccc2ccc[n+](CC)c12  NCI-H522 lung    > 100 µM
15  CCCCCCCCCCCCCCCC(=O)N(CCCCCCCCCCC(=O)O)CC(O)C(O)C(OC1OC(CO)C(O)C(O)C1O)C(O)CO (configuration not stated)  NCI-H522 lung    > 100 µM
16  Nc1nn2c(nc(N)c3c(N)[nH]nc32)c1N=Nc1ccc(Br)cc1  NCI-H522 lung     76.9 µM
17  C/C=C/CC(C)[C@@H](O)[C@H](NC)C(=O)O (some centres not stated)  NCI-H522 lung    > 100 µM
18  CN(Cc1cc(Cl)cc(Cl)c1)CC(C(=O)c1ccccc1)c1ccccc1 (configuration not stated)  NCI-H522 lung     4.39 µM
19      O=[N+]([O-])CCc1cccc([N+](=O)[O-])c1  NCI-H522 lung    > 100 µM
20  O=C(O)CC1NCc2cc3ccccc3nc21 (configuration not stated)  NCI-H522 lung    > 100 µM
21  c1c[nH]c(C23C4C5C6C4C2C6C53)n1 (configuration not stated)  NCI-H522 lung    > 100 µM
22  CCCCCCCCCCCCOCCCOP(=O)([O-])OCC[N+](C)(C)C  NCI-H522 lung     68.3 µM
23  COc1c(O)cc2c(c1O)C(=O)/C(=C/c1ccc(O)cc1)CO2  NCI-H522 lung     33.8 µM
24  CC1=NN(C(=O)c2ccc([N+](=O)[O-])cc2)C(=O)C1N=Nc1ccccc1C(=O)O (configuration not stated)  NCI-H522 lung    > 100 µM
25  CCOC(=N)/C(=C1\OC(N)=C(c2ccc(Cl)cc2)C1=O)c1ccc(Cl)cc1  NCI-H522 lung     29.4 µM
26  CN/N=C(\C)C(CN(C)C)C(c1ccccc1)c1c(O)c2ccccc2oc1=O (configuration not stated)  NCI-H522 lung    > 100 µM
27  Cn1c2ccc(Br)cc2c2c3c(c4c5ccccc5[nH]c4c21)C(=O)N(O)C3=O  NCI-H522 lung    0.286 µM
28    COc1ccc(OC)c2c1[nH]c(=O)c1c3ncccc3cn21  NCI-H522 lung    > 100 µM
29  CCN(CC)CCCNC(=O)c1c2c(n3ccccc13)C(=O)c1ncccc1C2=O  NCI-H522 lung     2.32 µM
30                O=c1[nH]nc(Cc2ccccc2)n1CCO  NCI-H522 lung    > 100 µM
31  CC1(C)C2CC(=O)C1(C)C(OCc1ccccc1)C2 (configuration not stated)  NCI-H522 lung     52.5 µM
